Known %Inh of a selection of compounds
Tested on: FER
Experimental conditions: concentration: 1 μM, replicates: in singlicate; n = 1;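 note: KINOMEscan kinase panel screen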
I'd appreciate it if you wrote the number followed by its unit.

Test smiles	%Inh
COCCNC(=O)c1ccc(-c2cc(C(=O)NC3CC3)cc(F)c2C)cc1	1%
CCc1nc(-c2cccc(C)c2)c(-c2ccnc(NCc3ccccc3)c2)s1	0%

Let us examine a further case.
`Cc1cccc(Cn2ccn3c(=O)cc(N4CCOCC4)nc23)c1` yielded %Inh of 30%

---

System: BIKE
Construct: gene BMP2K
Experimental conditions: concentration: 1 μM, replicates: in singlicate; n = 1
Endpoint: %Inh (%)
A number alone suffices; assume %.

// worked examples, %Inh included
Compound	%Inh / %
O=C1NC(=O)C(N2CCc3ccccc32)=C1c1cccc(Cl)c1 [SB-408010]	37
O=c1cc(N2CCOCC2)nc2n(Cc3cccc(Cl)c3Cl)c(C3CC3)nn12 [GSK2358994]	0
Cc1nnc(-c2ccc(C)c(-c3ccc(C(=O)Nc4ccc(NS(C)(=O)=O)cc4)cc3)c2)o1 [GW702865]	7
Cc1cn2c(=O)cc(N3CCOCC3)nc2n1Cc1cccc(Cl)c1Cl [GSK2334006]	27
Cc1nnc(-c2ccc3ncc(-c4ccc(S(C)=O)cc4)n3c2)o1 (stereo not drawn)	0
c1ccc(-c2n[nH]cc2-c2ccnc3ccccc23)nc1 [GW271431]	24
CN(C(=O)c1ccc(-c2cc(-c3c[nH]nc3-c3ccccn3)ccn2)cc1)C1CCOCC1 [GW810083]	20
CC(C)(C)n1cnc2c(N)ncnc21 [SKF-97359]	0

Moving on to another compound below.
The measured %Inh associated with O=C(c1ccc(-c2cc(-c3c[nH]nc3-c3ccccn3)ccn2)cc1)N1CCOCC1 [GW812171] reads 0
